Values were extracted from ChEMBL document CHEMBL3792365.

assay-protocol: Growth inhibition of human Caki1 cells at 10 uM after 48 hrs by sulforhodamine B assay
Type: functional
experimental-parameters: CAKI-1, 48 h, values are per cent of control
Quick rule for you: growth, % of control at 10 µM under 80% gets T, anything else gets F.

Lab note: growth, % of control at 10 µM threshold 80%. Does this molecule come in strictly under it? COc1cc(/C=C(\C#N)c2ccc3c(c2)OCO3)cc(OC)c1
F

Lab note: growth, % of control at 10 µM threshold 80%. Does this molecule come in strictly under it? COc1ccc(/C(C#N)=C/c2ccc3c(c2)OCCO3)cc1OC
T

Lab note: growth, % of control at 10 µM threshold 80%. Does this molecule come in strictly under it? N#C/C(=C\c1ccc(Cl)cc1Cl)c1ccc2c(c1)OCO2
F

Lab note: growth, % of control at 10 µM threshold 80%. Does this molecule come in strictly under it? COc1ccc(/C=C(\C#N)c2ccc3c(c2)OCO3)cc1
T

Lab note: growth, % of control at 10 µM threshold 80%. Does this molecule come in strictly under it? N#C/C(=C\c1cccc2ccccc12)c1ccc2c(c1)OCO2
T

---

assay-protocol: Growth inhibition of human HCT15 cells after 48 hrs by sulforhodamine B assay
Format: functional
experimental-parameters: HCT-15, 48 h
value-type: log10 GI50 (log10 of the value in nM)
Recall that a logarithmic scale is used here: each number is log10 of GI50 in nM.

// below: answered compounds
Note to self: log10 GI50 recorded for N#C/C(=C\c1cccc2ccccc12)c1ccc2c(c1)OCO2 was 3.25

Note to self: log10 GI50 recorded for COc1ccc(/C(C#N)=C/c2ccc3c(c2)OCCO3)cc1 was 3.32

Note to self: log10 GI50 recorded for COc1ccc(/C=C/c2cc(OC)c(OC)c(OC)c2)cc1 was 3.45

Note to self: log10 GI50 recorded for COc1cc(/C(C#N)=C/c2ccc3c(c2)OCCO3)cc(OC)c1OC was 1.60

Note to self: log10 GI50 recorded for COc1ccc(/C(C#N)=C/c2ccc3c(c2)OCCO3)cc1OC was 2.86

Note to self: log10 GI50 recorded for N#C/C(=C\c1cc2ccccc2s1)c1ccc2c(c1)OCO2 was 1.60

Note to self: log10 GI50 recorded for COc1ccc(/C=C(\C#N)c2ccc3c(c2)OCO3)c2ccccc12 was 2.88

Note to self: log10 GI50 recorded for COc1ccc(/C=C(\C#N)c2ccc3c(c2)OCO3)cc1 was 1.85

Next compound, log10 GI50 to be filled in.
Note to self: log10 GI50 recorded for COc1ccc(/C=C(\C#N)c2ccc3c(c2)OCO3)c(OC)c1 was 2.94

---

assay-protocol: Growth inhibition of human SNB75 cells after 48 hrs by sulforhodamine B assay
Assay type: functional
experimental-parameters: SNB-75, 48 h
Quick rule for you: GI50 under 1000 nM gets 1, anything else gets 0.

// below: answered molecules
Lab note: GI50 threshold 1000 nM. Does this molecule come in strictly under it? COc1ccc(/C=C(\C#N)c2ccc3c(c2)OCO3)c2ccccc12
0

Lab note: GI50 threshold 1000 nM. Does this molecule come in strictly under it? COc1ccc(/C(C#N)=C/c2ccc3c(c2)OCCO3)cc1OC
0

Continuing:
Lab note: GI50 threshold 1000 nM. Does this molecule come in strictly under it? COc1ccc(/C=C/c2cc(OC)c(OC)c(OC)c2)cc1
0

Lab note: GI50 threshold 1000 nM. Does this molecule come in strictly under it? COc1ccc(/C(C#N)=C/c2ccc3c(c2)OCCO3)cc1
0

Lab note: GI50 threshold 1000 nM. Does this molecule come in strictly under it? N#C/C(=C\c1cc2ccccc2s1)c1ccc2c(c1)OCO2
1

Lab note: GI50 threshold 1000 nM. Does this molecule come in strictly under it? COc1cc(/C(C#N)=C/c2ccc3c(c2)OCCO3)cc(OC)c1OC
1

Lab note: GI50 threshold 1000 nM. Does this molecule come in strictly under it? N#C/C(=C\c1cccc2ccccc12)c1ccc2c(c1)OCO2
0

---

This section presents compounds with their documented GI50 values.
assay-protocol: Growth inhibition of human HOP92 cells after 48 hrs by sulforhodamine B assay
Assay type: functional
experimental-parameters: HOP-92, 48 h

Note to self: GI50 recorded for COc1ccc(/C=C/c2cc(OC)c(OC)c(OC)c2)cc1 was 7.23 µM

Continuing:
Note to self: GI50 recorded for COc1ccc(/C(C#N)=C/c2ccc3c(c2)OCCO3)cc1OC was 9.64 µM

Note to self: GI50 recorded for COc1cc(/C(C#N)=C/c2ccc3c(c2)OCCO3)cc(OC)c1OC was 0.12 µM

Note to self: GI50 recorded for COc1ccc(/C(C#N)=C/c2ccc3c(c2)OCCO3)cc1 was > 100 µM

Note to self: GI50 recorded for COc1ccc(/C=C(\C#N)c2ccc3c(c2)OCO3)c2ccccc12 was 12 µM

Note to self: GI50 recorded for N#C/C(=C\c1cc2ccccc2s1)c1ccc2c(c1)OCO2 was 17 µM

---

assay-protocol: Growth inhibition of human BT549 cells at 10 uM after 48 hrs by sulforhodamine B assay
Assay type: functional
experimental-parameters: BT-549, 48 h, values are per cent of control
value-type: growth, % of control at 10 µM (%)
Just the number please, in %, no unit attached.

// below: answered compounds
Note to self: growth, % of control at 10 µM recorded for COc1ccc(/C(C#N)=C/c2ccc3c(c2)OCCO3)cc1OC was 19.2

Note to self: growth, % of control at 10 µM recorded for COc1cc(/C(C#N)=C/c2ccc3c(c2)OCCO3)cc(OC)c1OC was -17.2

Note to self: growth, % of control at 10 µM recorded for COc1ccc(/C(C#N)=C/c2ccc3c(c2)OCCO3)cc1 was 56.6

Continuing:
Note to self: growth, % of control at 10 µM recorded for N#C/C(=C\c1ccsc1)c1ccc2c(c1)OCO2 was 96.5

Note to self: growth, % of control at 10 µM recorded for COc1ccc(/C=C(\C#N)c2ccc3c(c2)OCO3)c2ccccc12 was 26.6

Note to self: growth, % of control at 10 µM recorded for N#C/C(=C\c1cc(F)cc(F)c1)c1ccc2c(c1)OCO2 was 94.5

---

assay-protocol: Growth inhibition of human LOXIMVI cells after 48 hrs by sulforhodamine B assay
Assay type: functional
experimental-parameters: LOX IMVI
Quick rule for you: GI50 under 4 µM gets t, anything else gets f.

// below: answered molecules
Lab note: GI50 threshold 4 µM. Does this molecule come in strictly under it? COc1cc(/C(C#N)=C/c2ccc3c(c2)OCCO3)cc(OC)c1OC
t

Lab note: GI50 threshold 4 µM. Does this molecule come in strictly under it? COc1ccc(/C=C(\C#N)c2ccc3c(c2)OCO3)cc1
t

Lab note: GI50 threshold 4 µM. Does this molecule come in strictly under it? N#C/C(=C\c1cccc2ccccc12)c1ccc2c(c1)OCO2
f

Continuing:
Lab note: GI50 threshold 4 µM. Does this molecule come in strictly under it? COc1ccc(/C(C#N)=C/c2ccc3c(c2)OCCO3)cc1OC
f

Lab note: GI50 threshold 4 µM. Does this molecule come in strictly under it? N#C/C(=C\c1cc2ccccc2s1)c1ccc2c(c1)OCO2
t

Lab note: GI50 threshold 4 µM. Does this molecule come in strictly under it? COc1ccc(/C=C(\C#N)c2ccc3c(c2)OCO3)c(OC)c1
f

Lab note: GI50 threshold 4 µM. Does this molecule come in strictly under it? COc1ccc(/C=C/c2cc(OC)c(OC)c(OC)c2)cc1
f

---

Tested on: T47D
assay-protocol: Growth inhibition of human T47D cells at 10 uM after 48 hrs by sulforhodamine B assay
Format: functional
experimental-parameters: values are per cent of control
value-type: growth, % of control at 10 µM (%)
Just the number please, in %, no unit attached.

// returns growth, % of control at 10 µM for COc1cc(/C=C(\C#N)c2ccc3c(c2)OCO3)cc(OC)c1 with T47D; value = 75.6

// returns growth, % of control at 10 µM for N#C/C(=C\c1cccc2ccccc12)c1ccc2c(c1)OCO2 with T47D; value = 67.9

// returns growth, % of control at 10 µM for COc1ccc(/C=C(\C#N)c2ccc3c(c2)OCO3)cc1 with T47D; value = 35.8

// returns growth, % of control at 10 µM for N#C/C(=C\c1ccc(Cl)cc1Cl)c1ccc2c(c1)OCO2 with T47D; value = 76.3

// returns growth, % of control at 10 µM for COc1ccc(/C=C(\C#N)c2ccc3c(c2)OCO3)cc1OC with T47D; value = 88.7

Continuing:
// returns growth, % of control at 10 µM for N#C/C(=C\c1ccc(Cl)c(Cl)c1)c1ccc2c(c1)OCO2 with T47D; value = 74.7

// returns growth, % of control at 10 µM for COc1ccc(/C=C(\C#N)c2ccc3c(c2)OCO3)cn1 with T47D; value = 81

// returns growth, % of control at 10 µM for COc1ccc(/C(C#N)=C/c2ccc3c(c2)OCCO3)cc1 with T47D; value = 40.4

// returns growth, % of control at 10 µM for N#C/C(=C\c1ccc2c(c1)OCO2)c1ccc2c(c1)OCO2 with T47D; value = 67.7

// returns growth, % of control at 10 µM for COc1cc(/C(C#N)=C/c2ccc3c(c2)OCCO3)cc(OC)c1OC with T47D; value = 84.4

// returns growth, % of control at 10 µM for N#C/C(=C\c1c(Cl)cccc1Cl)c1ccc2c(c1)OCO2 with T47D; value = 83.8

// returns growth, % of control at 10 µM for N#C/C(=C\c1cc(F)cc(F)c1)c1ccc2c(c1)OCO2 with T47D; value = 102

// returns growth, % of control at 10 µM for COc1cc(/C=C(\C#N)c2ccc3c(c2)OCO3)cc(OC)c1OC with T47D; value = 70.7

// returns growth, % of control at 10 µM for COc1ccc(/C=C(\C#N)c2ccc3c(c2)OCO3)c2ccccc12 with T47D; value = 38.2

// returns growth, % of control at 10 µM for N#C/C(=C\c1ccsc1)c1ccc2c(c1)OCO2 with T47D; value = 90.7
